pKd: −log10 of the molar value.
In what follows, each item is paired with its pKd for human SOS1 (Homo sapiens (Human)).
Measured property: pKd

For orientation, consider the following solved cases.
{"columns": ["Compound", "Measurement"],
 "data": [
  ["Cc1c([C@@H](C)Nc2nn(C)c(=O)c3c([C@@H]4CCCN4)c(=O)n(C4CC4)cc23)cccc1C(F)(F)F (single isomer, unassigned) [Example 34]", 8.00],
  ["C[C@@H](Nc1nn(C)c(=O)c2cc(=O)n(C3CCOCC3)cc12)c1cccc(C(F)(F)[C@@H]2CCCO2)c1F (single isomer, unassigned) [Example 45]", 8.00],
  ["C[C@@H](Nc1nn(C)c(=O)c2cc(=O)n(C3CC4(COC4)C3)cc12)c1cccc(C(F)F)c1F [Example 51]", 7.77]
]}

a. C[C@@H](Nc1nn(C)c(=O)c2cc(=O)n(C3CCOCC3)cc12)c1cccc2sccc12 [Example 62]
b. COc1c(=O)n(C2CC2)cc2c(N[C@H](C)c3cccc(C(F)(F)F)c3C)nn(C)c(=O)c12 [Example 6]
Between a and b , which one has the lower reported pKd value? Reply with the label of the item you choose.
b
